Tested on: human neuroblastoma MC-65 cells
assay-remarks: cells
run-conditions: MC-65, cultured without tetracycline, viability below 80%
Entries and their measured CC2 (cytotoxic concentration) follow.
Respond numerically; units are µM and should not be typed.

# compound, value-measured
records = [
    ("Cc1[nH]cc(C(N2CCOCC2)C(F)(F)F)c(=O)c1O (stereo not drawn) [Apo7433]", 40),
    ("C=CCNC(c1c(O)c(=O)ccn1C)C(F)(F)F (stereo not drawn) [Apo7075]", 20),
]

Next up:
Suppose we examine the compound Cc1cc(=O)c(O)c(C(N2CCN(c3ccccc3)CC2)C(F)(F)F)n1C (stereo not drawn) [Apo7335] ; what CC2 (cytotoxic concentration) value has been reported?
20
